Values from patent US6911449B2

Assayed system: UniProt P08254
Sequence (P08254 100-477): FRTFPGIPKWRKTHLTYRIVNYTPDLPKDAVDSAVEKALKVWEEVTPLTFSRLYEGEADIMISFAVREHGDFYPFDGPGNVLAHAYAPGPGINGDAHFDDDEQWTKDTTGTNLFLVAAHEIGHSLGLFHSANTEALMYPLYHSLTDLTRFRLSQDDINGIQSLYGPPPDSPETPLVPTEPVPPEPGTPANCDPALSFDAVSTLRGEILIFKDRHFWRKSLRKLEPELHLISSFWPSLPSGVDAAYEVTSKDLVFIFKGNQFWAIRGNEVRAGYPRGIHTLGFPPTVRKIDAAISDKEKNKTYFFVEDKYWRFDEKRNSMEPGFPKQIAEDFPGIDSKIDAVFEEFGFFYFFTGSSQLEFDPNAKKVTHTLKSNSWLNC
Each record here notes measured IC50.
Express the result in nM but write the number alone.

Worked set:
> print(dat)
                                   compound  parameter.measured  data.value
1  O=C(CC(CCn1nnc2ccccc2c1=O)C(=O)O)c1ccc(-c2ccc(Cl)cc2)cc1 (single isomer, unassigned) [Example 21]                IC50         6.5
2  O=C(O)C1[C@H](COCOCc2ccccc2)CC[C@@H]1C(=O)c1ccc(-c2ccc(Cl)cc2)cc1 (relative stereo) [Example 2]                IC50          17

Proceeding to the next compound to report its IC50.
Field IC50 (entry O=C(CC(CCn1nnc2ccccc2c1=O)C(=O)O)c1ccc(-c2ccc(Cl)cc2)cc1 (single isomer, unassigned) [Example 20] ) reads 320
